# target_entity: RET M918T (Homo sapiens, UniProt P07949, M918T)
# Sequence (P07949 29-1114 M918T): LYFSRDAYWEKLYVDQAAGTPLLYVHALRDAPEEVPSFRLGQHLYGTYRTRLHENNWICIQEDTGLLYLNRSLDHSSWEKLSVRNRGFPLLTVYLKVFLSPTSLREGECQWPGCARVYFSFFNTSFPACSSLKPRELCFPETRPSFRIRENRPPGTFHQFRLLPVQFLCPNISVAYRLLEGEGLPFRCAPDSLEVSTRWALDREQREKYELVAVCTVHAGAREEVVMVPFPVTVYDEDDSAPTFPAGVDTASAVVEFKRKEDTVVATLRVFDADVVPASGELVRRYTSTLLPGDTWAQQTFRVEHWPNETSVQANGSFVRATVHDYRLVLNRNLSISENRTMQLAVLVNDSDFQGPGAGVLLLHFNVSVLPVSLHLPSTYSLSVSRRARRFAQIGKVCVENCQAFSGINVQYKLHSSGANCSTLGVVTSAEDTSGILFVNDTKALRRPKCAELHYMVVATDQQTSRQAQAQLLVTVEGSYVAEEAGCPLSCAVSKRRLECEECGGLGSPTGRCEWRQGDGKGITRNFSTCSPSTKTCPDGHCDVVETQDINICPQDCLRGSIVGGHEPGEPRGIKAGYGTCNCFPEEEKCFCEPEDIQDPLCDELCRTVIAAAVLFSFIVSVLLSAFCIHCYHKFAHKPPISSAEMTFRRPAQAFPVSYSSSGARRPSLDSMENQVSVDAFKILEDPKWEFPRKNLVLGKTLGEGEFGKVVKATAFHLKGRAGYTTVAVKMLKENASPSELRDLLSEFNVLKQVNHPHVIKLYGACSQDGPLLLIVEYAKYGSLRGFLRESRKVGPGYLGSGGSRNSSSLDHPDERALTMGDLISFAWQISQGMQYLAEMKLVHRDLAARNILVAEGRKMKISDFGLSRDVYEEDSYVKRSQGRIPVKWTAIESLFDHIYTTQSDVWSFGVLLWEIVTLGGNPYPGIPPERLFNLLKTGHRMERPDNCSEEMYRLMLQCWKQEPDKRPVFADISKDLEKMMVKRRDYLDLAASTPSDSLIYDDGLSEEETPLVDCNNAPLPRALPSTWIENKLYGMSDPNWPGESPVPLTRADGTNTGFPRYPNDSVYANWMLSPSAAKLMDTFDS
# assay_method_text: Inhibitory activity against RET kinase mutant RET M918T
# experimental_conditions: read-out: median inhibitory activity (IC50) against RET M918T
pIC50: −log10 of the molar value.
reported_property: pIC50

Query :: Report pIC50 on RET M918T (Homo sapiens, UniProt P07949, M918T) for this entry: CCNc1cc(-c2cnc(N3CC4CC(C3)N4Cc3ccc(OC)nc3)cn2)c2c(C#N)cnn2c1
Result :: > 8.30

Query :: Report pIC50 on RET M918T (Homo sapiens, UniProt P07949, M918T) for this entry: CCNc1cc(-c2ccc(N3CC4CC(C3)N4Cc3ccc(-n4cc(F)cn4)nc3)nc2)c2c(C#N)cnn2c1
Result :: > 8.30
